Measured values drawn from the supplement of paper PMC9170038 for this set.

Measured apparent KD of MS2 coat protein accompanies every entry in the list below.
- System: MS2 coat protein
- Test description: apparent KD of MS2 coat protein; designed switch direction (-1 OFF switch, 1 ON switch): -1; higher = weaker reporter binding
- Details: input ligand: none
Parameter measured: apparent KD of MS2 coat protein

Sequence content | Data value
CGUAUGUCAGGAUAUCGUGCAUACAACGAAAGUUCUAUGUGCGAGAAGGGACAUGAGGAUCACCCAUGUCUUCG [Omei Ex4 A13] (Eterna round: R97, puzzle: Exclusion 4) | 23.6 nM
AAAAGGUGAGGAUAUCCGACGUUGCACUUGAGGAUCACCCAAGUUCCUCGCGUGCUUUUAGGAGAAGGCACAAAAC [Tegezaza] (Eterna round: R97, puzzle: Exclusion 5) | 982 nM
CUAGUAUAUCAGGAUAUGAUUUUAUAUAUUGGAUCAGAAGGGAUGACAUGAGGAUCACCCAUGUUGAGGAGUGA [JR_Ex6_Sub039] (Eterna round: R97, puzzle: Exclusion 6) | 103 nM
GAUCCUUUUACGGACGUCUCGAAACAUGAGGAUCACCCAUGUGAGGAUAUCUCCGAAAGGUCGGCAGAGAAGGCACAAUAACAA [MOD2 Eternabot solution 19 score 84.66] (Eterna round: R96, puzzle: Exclusion NG 3) | 18.7 nM
ACAUCACAGCUAGGAUAUAGAUGACAUGAGGAUCACCCAUGUUGUCCCAUGUUGACGAAAACCGACUAGAAGGAGCUACAGAUG [Ex NG2 #5] (Eterna round: R96, puzzle: Exclusion NG 2) | 50.1 nM
